Data origin: patent US10202361B2

Tested on: chickweed (common chickweed, Stellaria media)
TEST_DETAILS: Test C postemergence greenhouse herbicide test
Assay type: in vivo
MEASUREMENT_PARAMETERS: 62 g ai/ha
Threshold 80: Plant response rating strictly smaller gives satisfied, otherwise not satisfied.

INSERT INTO assay_data (compound, class_assignment) VALUES
  ('Cc1cc(=O)n(-c2ccc(C(F)(F)F)cc2)nc1Cc1ccnc(C(F)(F)F)c1 [Compound 2]', 'satisfied');

For COc1cc(=O)n(-c2ccc(C(F)(F)F)cc2)nc1Cc1ccnc(C(F)(F)F)c1 [Compound 16] , is the recorded Plant response rating below the cut-off of 80?
not satisfied

###

System: barley, winter (winter barley, Hordeum vulgare)
TEST_DETAILS: Test D pre-/postemergence controlled growth environment herbicide test
Type: in vivo
MEASUREMENT_PARAMETERS: Postemergence, 31 g ai/ha, scale 0 to 100
# reported Plant response rating; entries follow
Lab note: jot the number down without any unit.

Some compounds with known Plant response rating results, for comparison:
INSERT INTO assay_data (compound, value_reported) VALUES
  ('Cc1cc(=O)n(-c2ccc(F)cc2)nc1Oc1ccnc(C(F)(F)F)c1 [Compound 14]', 15),
  ('Cc1cc(=O)n(-c2ccc(C(F)(F)F)cc2)nc1Cc1ccnc(C(F)(F)F)c1 [Compound 2]', 10),
  ('COc1cc(=O)n(-c2ccc(F)cc2)nc1Cc1ccnc(C(F)(F)F)c1 [Compound 17]', 15);

Observed Plant response rating on barley, winter (winter barley, Hordeum vulgare) for Cc1cc(=O)n(-c2ccc(F)cc2)nc1Cc1ccnc(C(F)(F)F)c1 [Compound 1] , please.
0

###

Test system: ducksalad (Heteranthera limosa)
TEST_DETAILS: Test B flooded paddy test
Format: in vivo
MEASUREMENT_PARAMETERS: Flood, 125 g ai/ha; scale of 0 to 100, 0 is no effect, 100 is complete control; 13 to 15 d
# maps each entry to its Plant response rating, Ducksalad
Answer using only a numeral; do not append any unit.

Worked examples follow.
INSERT INTO measurements (structure_notation, readout_kind, value_reported) VALUES
  ('CCCc1cc(=O)n(-c2ccc(F)cc2)nc1Cc1ccnc(C(F)(F)F)c1', 'Plant response rating, Ducksalad', 30),
  ('O=c1c2c(c(Oc3ccnc(C(F)(F)F)c3)nn1-c1ccc(Cl)cc1)CCCC2', 'Plant response rating, Ducksalad', 0),
  ('CN(C)c1cc(=O)n(-c2ccc(C(F)(F)F)cc2)nc1Cc1ccnc(C(F)(F)F)c1', 'Plant response rating, Ducksalad', 0);

Now turn to the next molecule.
State the recorded Plant response rating, Ducksalad for this entry: "CCOc1cc(=O)n(-c2ccc(C(F)(F)F)cc2)nc1Cc1ccnc(C(F)(F)F)c1"
0

###

Attribute: pest or weed control at 62 g/ha
Tested on: ryegrass, Italian (Italian ryegrass, Lolium multiflorum)
TEST_DETAILS: Test C pre-/postemergence greenhouse herbicide test
Type: in vivo
MEASUREMENT_PARAMETERS: Lolium multiflorum, post-emergence; Ryegrass, Italian; Postemergence; 62 g ai/ha; read-out: Plant response rating
Quote the value and follow it with the unit of measurement.

Reference set (5 entries):
INSERT INTO measurements (molecule, value_reported) VALUES
  ('COc1cc(=O)n(-c2ccc(F)cc2)nc1Cc1ccnc(C(F)(F)F)c1 [Compound 17]', '5%'),
  ('Cc1cc(=O)n(-c2ccc(F)cc2)nc1Oc1ccnc(C(F)(F)F)c1 [Compound 14]', '5%'),
  ('Cc1cc(=O)n(-c2ccc(F)cc2)nc1Cc1ccnc(C(F)(F)F)c1 [Compound 1]', '5%'),
  ('COc1cc(=O)n(-c2ccc(C(F)(F)F)cc2)nc1Cc1ccnc(C(F)(F)F)c1 [Compound 16]', '5%'),
  ('Cc1cc(Oc2ccnc(C(F)(F)F)c2)nn(-c2ccc(C(F)(F)F)cc2)c1=O [Compound 6]', '10%');

Notebook: pull reported pest or weed control at 62 g/ha for ryegrass, Italian (Italian ryegrass, Lolium multiflorum), entry Cc1cc(=O)n(-c2ccc(C(F)(F)F)cc2)nc1Cc1ccnc(C(F)(F)F)c1 [Compound 2]
5%

###

Test system: field violet (Viola arvensis)
TEST_DETAILS: Test D pre-/postemergence controlled growth environment herbicide test
Assay type: in vivo
MEASUREMENT_PARAMETERS: Postemergence, 125 g ai/ha, scale 0 to 100
READOUT_KIND: Plant response rating
Lab note: record just the number, no unit beside it.

INSERT INTO assay_data (structure_notation, value_reported) VALUES
  ('COc1cc(=O)n(-c2ccc(F)cc2)nc1Cc1ccnc(C(F)(F)F)c1', 80),
  ('Cc1cc(=O)n(-c2ccc(C(F)(F)F)cc2)nc1Cc1ccnc(C(F)(F)F)c1', 100),
  ('Cc1cc(=O)n(-c2ccc(F)cc2)nc1Cc1ccnc(C(F)(F)F)c1', 75);

Lab note: next molecule to report on.
Give the measured Plant response rating of "Cc1cc(=O)n(-c2ccc(F)cc2)nc1Oc1ccnc(C(F)(F)F)c1" .
100

###

Reported Plant response rating values for the following molecules.
Tested on: barnyardgrass (Echinochloa crus-galli)
TEST_DETAILS: Test C pre-/postemergence greenhouse herbicide test
Format: in vivo
MEASUREMENT_PARAMETERS: Barnyardgrass; Postemergence; 250 g ai/ha
Quick one: just the number, no unit, thanks!

INSERT INTO results (structure_notation, readout_kind, value_reported) VALUES
  ('Cc1cc(Oc2ccnc(C(F)(F)F)c2)nn(-c2ccc(C(F)(F)F)cc2)c1=O', 'Plant response rating', 65);

Read the next record carefully.
Kindly state the measured Plant response rating obtained for "COc1cc(=O)n(-c2ccc(C(F)(F)F)cc2)nc1Cc1ccnc(C(F)(F)F)c1" with barnyardgrass (Echinochloa crus-galli).
35

###

Tested on: ragweed (common ragweed, Ambrosia elatior)
TEST_DETAILS: Test C pre-/postemergence greenhouse herbicide test
Format: in vivo
MEASUREMENT_PARAMETERS: Ambrosia artemisiifolia, pre-emergence; Ragweed; Preemergence; 62 g ai/ha; read-out: Plant response rating
Quick rule: pest or weed control at 62 g/ha of at least 60% means 1 (yes), below that means 0 (no).

INSERT INTO results (compound, class_assignment) VALUES
  ('CCOc1cc(=O)n(-c2ccc(F)cc2)nc1C(O)c1ccnc(C(F)(F)F)c1 (stereo not shown)', '0 (no)'),
  ('CCOc1cc(=O)n(-c2ccc(F)cc2)nc1Cc1ccnc(C(F)(F)F)c1', '1 (yes)'),
  ('COc1cc(=O)n(-c2ccc(F)cc2)nc1Cc1ccnc(C(F)(F)F)c1', '1 (yes)'),
  ('Cc1cc(=O)n(-c2ccc(F)cc2)nc1Oc1ccnc(C(F)(F)F)c1', '0 (no)'),
  ('Cc1cc(=O)n(-c2ccc(F)cc2)nc1Cc1ccnc(C(F)(F)F)c1', '0 (no)');

Consider now this further compound.
Given the entry "COc1cc(=O)n(-c2ccc(C(F)(F)F)cc2)nc1Cc1ccnc(C(F)(F)F)c1" , answer whether its pest or weed control at 62 g/ha meets or surpasses 60%.
1 (yes)

###

Test system: soybean (Glycine max)
TEST_DETAILS: Test C pre-/postemergence greenhouse herbicide test
Assay type: in vivo
MEASUREMENT_PARAMETERS: Glycine max, pre-emergence; Soybean; Preemergence; 62 g ai/ha; read-out: Plant response rating
READOUT_KIND: plant injury at 62 g/ha (%)
Please respond with the number in % and leave the unit unwritten.

Previously resolved entries follow.
INSERT INTO assay_data (molecule, readout_kind, value_reported) VALUES
  ('COc1cc(=O)n(-c2ccc(C(F)(F)F)cc2)nc1Cc1ccnc(C(F)(F)F)c1', 'plant injury at 62 g/ha', 25),
  ('Cc1cc(=O)n(-c2ccc(C(F)(F)F)cc2)nc1Cc1ccnc(C(F)(F)F)c1', 'plant injury at 62 g/ha', 25),
  ('Cc1cc(=O)n(-c2ccc(F)cc2)nc1Cc1ccnc(C(F)(F)F)c1', 'plant injury at 62 g/ha', 60),
  ('CCOc1cc(=O)n(-c2ccc(F)cc2)nc1C(O)c1ccnc(C(F)(F)F)c1 (stereo not shown)', 'plant injury at 62 g/ha', 25),
  ('COc1cc(=O)n(-c2ccc(F)cc2)nc1Cc1ccnc(C(F)(F)F)c1', 'plant injury at 62 g/ha', 55),
  ('CCOc1cc(=O)n(-c2ccc(F)cc2)nc1Cc1ccnc(C(F)(F)F)c1', 'plant injury at 62 g/ha', 20);

Kindly consider the entry below.
Would you kindly share the measured plant injury at 62 g/ha for "Cc1cc(=O)n(-c2ccc(F)cc2)nc1Oc1ccnc(C(F)(F)F)c1" ?
40

###

System: morningglory (Ipomoea spp.)
TEST_DETAILS: Test A pre-/postemergence greenhouse herbicide test
Type: in vivo
MEASUREMENT_PARAMETERS: Postemergence, 125 g ai/ha; 0 to 100 scale (0 no effect, 100 complete control), approx. 10 d
READOUT_KIND: Plant response rating, Morningglory
Reply: number alone, nothing else.

Check out these entries, answers already filled in.
INSERT INTO measurements (molecule, experimental_system, readout_kind, value_reported) VALUES
  ('Cc1cc(Oc2ccnc(C(F)(F)F)c2)nn(-c2ccc(F)cc2)c1=O [Compound 13]', 'morningglory (Ipomoea spp.)', 'Plant response rating, Morningglory', 50),
  ('Cc1cc(=O)n(-c2ccc(F)cc2)nc1Oc1cc(C(F)(F)F)ccn1 [Compound 10]', 'morningglory (Ipomoea spp.)', 'Plant response rating, Morningglory', 30),
  ('O=c1c2c(c(Oc3ccnc(C(F)(F)F)c3)nn1-c1ccc(Cl)cc1)CCCC2 [Compound 7]', 'morningglory (Ipomoea spp.)', 'Plant response rating, Morningglory', 10),
  ('Cc1cc(Oc2cccc(C(F)(F)F)n2)nn(-c2ccc(F)cc2)c1=O [Compound 11]', 'morningglory (Ipomoea spp.)', 'Plant response rating, Morningglory', 20);

Please turn your attention to the following entry.
Fill in the blank: the reported Plant response rating, Morningglory of Cc1cc(=O)n(-c2cccc(C(F)(F)F)c2)nc1Oc1ccnc(C(F)(F)F)c1 [Compound 4] is ____.
40
